Each recorded value in this set is attributed to ChEMBL document CHEMBL5303573.

Assay Info: The drug is tested on Collinsella intestinalis strain: DSM13280 for biotransformation. The drug concentrations were measured before and after a 12-h incubation by liquid-chromatography-coupled mass spectrometry (LC–MS)
Experimental Setup: 2 µM
Measurement Name: Bacterial Biotransformation

Here are 6 compounds together with their reported answers.
OC(Cn1cncn1)(Cn1cncn1)c1ccc(F)cc1F
Compound NOT metabolized
O=C1CN2Cc3c(ccc(Cl)c3Cl)N=C2N1 [ANAGRELIDE]
Compound NOT metabolized
CCC(C)n1ncn(-c2ccc(N3CCN(c4ccc(OCC5COC(Cn6cncn6)(c6ccc(Cl)cc6Cl)O5)cc4)CC3)cc2)c1=O (stereo not drawn)
Compound NOT metabolized
CC(CN(C)C)CN1c2ccccc2CCc2ccccc21.O=C(O)/C=C\C(=O)O (stereo not drawn) [TRIMIPRAMINE MALEATE]
Compound NOT metabolized
COC(=O)C(c1ccccc1)C1CCCCN1 (stereo not drawn) [METHYLPHENIDATE]
Compound NOT metabolized
CN1CCN(C2=Nc3cc(Cl)ccc3Nc3ccccc32)CC1
Compound NOT metabolized

Give reported Bacterial Biotransformation value for `CC[C@@]1(O)C(=O)OCc2c1cc1n(c2=O)Cc2cc3c(CN(C)C)c(O)ccc3nc2-1`
Compound NOT metabolized

Note down Bacterial Biotransformation recorded for `C#C[C@]1(O)CC[C@H]2[C@@H]3CCC4=Cc5oncc5C[C@]4(C)[C@H]3CC[C@@]21C`
Compound metabolized

Determine from records and report Bacterial Biotransformation for O=c1[nH]c2ccccc2n1C1CCN(CCCC(c2ccc(F)cc2)c2ccc(F)cc2)CC1 [PIMOZIDE]
Compound NOT metabolized
